Taken from PubChem BioAssay AID1159580.

- ASSAY PROTOCOL: chemical genetic growth profiling, strain panel (AID 1159580);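 further: tested at 20 µM; growth read once vehicle control cultures reached saturation at 30 °C; lower values mean less growth of the strain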
- TEST SETTINGS: S. cerevisiae deletion strains, growth OD, locus YOR119C, strain RIO1, active compounds read low
Out of some 5,500 compounds screened, about 2,000 (36%) were called active. Inconclusive results (about 18%) are left out. The list shows a part of the results.
hey, just use TRUE if measured normalized growth is less than 1, otherwise FALSE

q: Consider the compound CCOC(=O)C1C(c2c(F)cccc2Cl)C(C(=O)OCC)C(O)(C(F)(F)F)NC1(O)C(F)(F)F (configuration not stated) . Is its normalized growth strictly less than 1?
a: FALSE

q: Consider the compound Cc1cc(C(=O)NNS(=O)(=O)c2ccc(F)c(Cl)c2)nn1-c1c(Cl)cc(Cl)cc1Cl . Is its normalized growth strictly less than 1?
a: FALSE

q: Consider the compound COc1ccc(C(CC(=O)c2ccccc2)Sc2ccccc2N)cc1OC (configuration not stated) . Is its normalized growth strictly less than 1?
a: TRUE

q: Consider the compound Cc1ccc(Nc2ccnc3cc(Cl)ccc23)cc1F . Is its normalized growth strictly less than 1?
a: FALSE

q: Consider the compound O=C(ON=C1CCCCC1)c1ccc([N+](=O)[O-])cc1 . Is its normalized growth strictly less than 1?
a: TRUE

q: Consider the compound O=[N+]([O-])c1ccc(ON=C2CCCCC2)c([N+](=O)[O-])c1 . Is its normalized growth strictly less than 1?
a: TRUE

q: Consider the compound COc1cccc(C2CCN(C(=O)c3cccc4ccccc34)CC2)c1 . Is its normalized growth strictly less than 1?
a: TRUE

q: Consider the compound N/C(CCSc1ccc(Cl)cc1)=N/OC(=O)Nc1ccc(Cl)cc1 . Is its normalized growth strictly less than 1?
a: TRUE
